Below is a list of entries, each paired with its recorded Efficiency Ligand value.
# system name: GPR139 (Homo sapiens, UniProt Q6DWJ6)
# Sequence (Q6DWJ6 whole entry): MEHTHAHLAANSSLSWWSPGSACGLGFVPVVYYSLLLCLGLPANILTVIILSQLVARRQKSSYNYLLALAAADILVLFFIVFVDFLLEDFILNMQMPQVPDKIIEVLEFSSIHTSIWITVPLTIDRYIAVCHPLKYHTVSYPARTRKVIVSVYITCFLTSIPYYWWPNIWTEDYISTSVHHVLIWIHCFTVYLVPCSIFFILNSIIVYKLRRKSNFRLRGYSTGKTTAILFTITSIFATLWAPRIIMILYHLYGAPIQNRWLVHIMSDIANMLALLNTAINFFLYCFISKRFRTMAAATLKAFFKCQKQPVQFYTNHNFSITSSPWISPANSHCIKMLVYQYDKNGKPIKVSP
# test: GPR139 Agonist titration / agonist counterscreen assay (calcium detection, HEK-GPR139 cells)
# Format: cell-based
# Set-up: expressed in transfected cells; host or cells: HEK Aequorin cells, Maxcyte transient transfection
# condition context: GPR139 Agonist Activity

| molecule | Efficiency Ligand |
| --- | --- |
| COc1ccc(CCn2nc(-c3cccnc3)[nH]c2=O)cc1 | 0.38 |
| O=C(NCCn1ccc2ccccc21)c1cccc(Cl)c1 | 0.42 |
| O=C(CN1C(=O)OC(O)(c2ccc(Cl)cc2Cl)C1=O)Nc1ccccc1Cl (stereo not shown) | 0.33 |
| COc1cc(-c2noc(CCC(=O)Nc3cccc(C)c3C)n2)cc(OC)c1OC | 0.29 |
| COc1ccc(CCN2CC3=C(C2=O)C(c2ccc(F)c(F)c2)NC(=O)N3)cc1 (stereo not shown) | 0.31 |
| O=C(CN1CCCN(Cc2ccc(F)cc2Cl)C1=O)NC1CCCCC1 | 0.35 |
| COc1cc(OC)cc(C(=O)NNC(=O)CCc2ccccc2)c1 | 0.37 |
| O=C(Cn1nc(Cc2ccncc2)c2ccccc2c1=O)N1CCCc2ccccc21 | 0.28 |
| Cc1cccc(C(=O)NNC(=O)CCc2ccccc2)c1 | 0.42 |
| CCOC(=O)C1C2C=CC3(CN(C(C)c4ccc(Br)cc4)C(=O)C13)O2 (stereo not shown) | 0.34 |
